- Target or test system: IKZF1 (dCK*-IKZF1 fusion in HEK293FT) (UniProt Q13422)
- Sequence (Q13422 whole entry, looked up, the tested form may be a part): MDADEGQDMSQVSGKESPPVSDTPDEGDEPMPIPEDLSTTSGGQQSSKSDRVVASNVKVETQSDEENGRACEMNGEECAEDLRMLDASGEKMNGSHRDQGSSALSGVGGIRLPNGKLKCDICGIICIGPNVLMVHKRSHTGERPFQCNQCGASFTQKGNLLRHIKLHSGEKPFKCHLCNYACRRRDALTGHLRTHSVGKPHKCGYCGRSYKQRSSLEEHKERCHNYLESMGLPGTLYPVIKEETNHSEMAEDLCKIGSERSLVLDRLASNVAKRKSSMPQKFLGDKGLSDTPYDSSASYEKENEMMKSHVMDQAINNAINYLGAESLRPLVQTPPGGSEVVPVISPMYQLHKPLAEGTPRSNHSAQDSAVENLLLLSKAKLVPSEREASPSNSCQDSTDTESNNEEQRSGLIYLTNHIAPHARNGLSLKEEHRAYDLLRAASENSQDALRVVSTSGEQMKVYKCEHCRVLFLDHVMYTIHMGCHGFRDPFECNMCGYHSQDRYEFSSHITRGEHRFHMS
- Measurement protocol: inhibition of IKZF1 HTRF signal (DMSO = 0%, pomalidomide 10 uM = 100%); higher = lower IKZF1 protein level
- Condition set: compound concentration: 5 uM, overnight (~20 h)
Where a name gives a salt, the structure may show the parent alone.
Property: inhibition of IKZF1 HTRF signal (%)
Write the value in % as a bare number.

CN(C)c1ccc2nc3ccc(N(C)C)cc3[s+]c2c1; 56.3
CC[C@@]1(O)C(=O)OCc2c1cc1n(c2=O)Cc2cc3cc(O)ccc3nc2-1 [10-Hydroxycamptothecin]; 38.4
Cc1ncsc1-c1ccc(CNC(=O)[C@@H]2C[C@@H](O)CN2C(=O)[C@@H](NC(=O)COCCCCOc2ccc(-c3ccc(N4C(=S)N(c5ccc(C#N)c(C(F)(F)F)c5)C(=O)C4(C)C)cc3)cc2)C(C)(C)C)cc1; 21.2

inhibition of IKZF1 HTRF signal on IKZF1 (dCK*-IKZF1 fusion in HEK293FT) (UniProt Q13422) for CN(Cc1cnc2nc(N)nc(N)c2n1)c1ccc(C(=O)N[C@@H](CCC(=O)O)C(=O)O)cc1 is -18.9

inhibition of IKZF1 HTRF signal on IKZF1 (dCK*-IKZF1 fusion in HEK293FT) (UniProt Q13422) for CC(CN(C)C)CN1c2ccccc2Sc2ccccc21 (configuration not stated) is -50.1

inhibition of IKZF1 HTRF signal on IKZF1 (dCK*-IKZF1 fusion in HEK293FT) (UniProt Q13422) for Cc1cc(N2CCCCC2)nc2ccccc12 is -32

inhibition of IKZF1 HTRF signal on IKZF1 (dCK*-IKZF1 fusion in HEK293FT) (UniProt Q13422) for CNCC(O)c1ccc(O)c(O)c1 (racemic) is 10.3

inhibition of IKZF1 HTRF signal on IKZF1 (dCK*-IKZF1 fusion in HEK293FT) (UniProt Q13422) for CN(Cc1cnc2nc(N)nc(N)c2n1)c1ccc(C(=O)NC(CCC(=O)O)C(=O)O)cc1 (configuration not stated) [Methotrexate] is -46

inhibition of IKZF1 HTRF signal on IKZF1 (dCK*-IKZF1 fusion in HEK293FT) (UniProt Q13422) for CNCCC(Oc1ccc(C(F)(F)F)cc1)c1ccccc1 (configuration not stated) [Fluoxetine HCl] is -26.7

###

- Target or test system: IKZF1 (dCK*-IKZF1 fusion in HEK293FT) (UniProt Q13422)
- Measurement protocol: inhibition of IKZF1 HTRF signal (DMSO = 0%, pomalidomide 10 uM = 100%); higher = lower IKZF1 protein level
- Condition set: compound concentration: 5 uM, overnight (~20 h)
Property: inhibition of IKZF1 HTRF signal (%)
Write the value in % as a bare number.

C=C1C(=O)O[C@@H]2[C@H]3O[C@]3(C)CC/C=C(\C)CC[C@@H]12 [parthenolide-(alternate-stereo)]; -27.7
Cc1ccc(S(=O)(=O)NC(=O)NN2CC3CCCC3C2)cc1 (stereo not drawn); -29.9
O=c1[nH]c2ccccc2n1C1CCN(CCOc2ccccc2)CC1 [oxiperomide]; 23.7
CC[n+]1c(-c2ccccc2)c2cc(N)ccc2c2ccc(N)cc21; 39.8
Nc1ncn([C@@H]2O[C@H](CO)C(O)C2O)c(=O)n1 (stereo partly drawn); -5.73

inhibition of IKZF1 HTRF signal on IKZF1 (dCK*-IKZF1 fusion in HEK293FT) (UniProt Q13422) for O=C1CN(/N=C/c2ccc(-c3ccc([N+](=O)[O-])cc3)o2)C(=O)N1 is 27.9

inhibition of IKZF1 HTRF signal on IKZF1 (dCK*-IKZF1 fusion in HEK293FT) (UniProt Q13422) for COc1cc([C@@H]2c3cc4c(cc3[C@@H](O[C@@H]3O[C@@H]5CO[C@@H](C)O[C@H]5[C@H](O)[C@H]3O)[C@H]3COC(=O)[C@H]23)OCO4)cc(OC)c1OP(=O)(O)O [Etoposide phosphate] is -12.6

inhibition of IKZF1 HTRF signal on IKZF1 (dCK*-IKZF1 fusion in HEK293FT) (UniProt Q13422) for O=C(O)c1ccc(S(=O)(=O)N(Cc2ccc(OC(F)(F)F)cc2)c2ncc(C(F)(F)F)cc2Cl)cc1 is -23.7
